// provenance: patent US7776862B2

- targetOfAssay: human CXCR3 (N-delta 4) (Homo sapiens)
- Construct: CD8 leader; Flag tag; expressed in transfected cells; membranes used
- Sequence (P49682 5-368 limits assumed): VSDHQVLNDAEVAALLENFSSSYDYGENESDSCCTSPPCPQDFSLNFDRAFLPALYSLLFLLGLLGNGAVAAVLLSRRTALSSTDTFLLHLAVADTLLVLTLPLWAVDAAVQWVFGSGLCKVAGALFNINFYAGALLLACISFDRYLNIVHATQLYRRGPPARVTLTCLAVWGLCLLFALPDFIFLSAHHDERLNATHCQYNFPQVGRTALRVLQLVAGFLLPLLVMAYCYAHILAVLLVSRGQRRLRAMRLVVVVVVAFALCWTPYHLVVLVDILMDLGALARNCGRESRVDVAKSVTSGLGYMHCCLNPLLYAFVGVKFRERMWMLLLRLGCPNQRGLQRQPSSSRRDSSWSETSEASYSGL
- assayInfo: Human CXCR3 (N-delta 4) scintillation proximity assay (SPA), [125I] IP-10 binding
- runParameters: IC50 rating; Ba/F3-hCXCR3 (N-delta 4) membranes, 25 pM [125I] IP-10
observable: IC50

molecule=O=C(NCc1cccc(F)c1)c1cnc(N2CCN(C3CCN(Cc4ccc(Cl)cc4)CC3)CC2)c(Cl)c1 targetofassay="human CXCR3 (N-delta 4) (Homo sapiens)" observable=IC50 reportedmeasurement="25 to 100 nM"
molecule=N#Cc1ccc(CN2CCC(N3CCN(c4ncc(C(=O)NCc5ccc(F)cc5F)cc4Cl)CC3)CC2)cc1 targetofassay="human CXCR3 (N-delta 4) (Homo sapiens)" observable=IC50 reportedmeasurement="> 100 nM"
molecule=O=C(NCc1ccc(F)c(F)c1)c1cnc(N2CCN(C3CCN(Cc4ccc(F)cc4F)CC3)CC2)c(Cl)c1 targetofassay="human CXCR3 (N-delta 4) (Homo sapiens)" observable=IC50 reportedmeasurement="25 to 100 nM"
molecule=C[C@H]1CN(c2ncc(C(=O)NCc3ccc(F)c(F)c3)cc2Cl)CCN1C1CCN(Cc2ccc(C#N)cc2)CC1 targetofassay="human CXCR3 (N-delta 4) (Homo sapiens)" observable=IC50 reportedmeasurement="< 25 nM"
molecule=O=C(NCc1ccc(F)cc1)c1cnc(N2CCN(C3CCN(Cc4ccc([N+](=O)[O-])cc4)CC3)CC2)c(Cl)c1 targetofassay="human CXCR3 (N-delta 4) (Homo sapiens)" observable=IC50 reportedmeasurement="25 to 100 nM"
molecule=O=C(NCc1ccc(Br)cc1)c1cnc(N2CCN(C3CCN(Cc4ccc([N+](=O)[O-])cc4)CC3)CC2)c(Cl)c1 targetofassay="human CXCR3 (N-delta 4) (Homo sapiens)" observable=IC50 reportedmeasurement="25 to 100 nM"
molecule=CC/N=C(/NCC)c1cnc(N2CCN(C3CCN(Cc4ccc(Cl)cc4)CC3)[C@@H](C)C2)c(Cl)c1 targetofassay="human CXCR3 (N-delta 4) (Homo sapiens)" observable=IC50 reportedmeasurement="> 100 nM"
molecule=O=C(NCc1cccc(F)c1)c1cnc(N2CCN(C3CCN(Cc4ccc(Cl)cc4Cl)CC3)CC2)c(Cl)c1 targetofassay="human CXCR3 (N-delta 4) (Homo sapiens)" observable=IC50 reportedmeasurement="> 100 nM"
molecule=COc1ccc(CN2CCC(N3CCN(c4ncc(C(=O)NCc5ccc(F)c(F)c5)cc4Br)CC3)CC2)cc1 targetofassay="human CXCR3 (N-delta 4) (Homo sapiens)" observable=IC50 reportedmeasurement="25 to 100 nM"
molecule=O=C(NCc1ccc(Cl)cc1)c1cnc(N2CCN(C3CCN(Cc4ccc(F)c(F)c4)CC3)CC2)c(Cl)c1 targetofassay="human CXCR3 (N-delta 4) (Homo sapiens)" observable=IC50 reportedmeasurement="25 to 100 nM"
molecule="CCNC(=O)c1cnc(N2CCN(C3CCN(C(=O)c4ccc(Cl)cc4)CC3)C(CC(F)(F)F)C2)c(Cl)c1 (stereo not shown)" targetofassay="human CXCR3 (N-delta 4) (Homo sapiens)" observable=IC50 reportedmeasurement="25 to 100 nM"
molecule=CNC(=O)c1cnc(N2CCN(C3CCN([C@H](C)c4ccc(Cl)cc4)CC3)[C@@H](C)C2)c(Cl)c1 targetofassay="human CXCR3 (N-delta 4) (Homo sapiens)" observable=IC50 reportedmeasurement="< 25 nM"
molecule=O=C(NCc1cc(Cl)cc(Cl)c1)c1cnc(N2CCN(C3CCN(Cc4ccc(F)cc4F)CC3)CC2)c(Cl)c1 targetofassay="human CXCR3 (N-delta 4) (Homo sapiens)" observable=IC50 reportedmeasurement="> 100 nM"
molecule=CC[C@H]1CN(c2ncc(CNC(=O)NCC(F)(F)F)cc2Cl)CCN1C1CCN(Cc2ccc(Br)cc2F)CC1 targetofassay="human CXCR3 (N-delta 4) (Homo sapiens)" observable=IC50 reportedmeasurement="< 25 nM"
molecule=CC[C@H]1CN(c2ncc(C(=O)OC)cc2Cl)CCN1C1CCN(Cc2ccc(F)cc2C(F)(F)F)CC1 targetofassay="human CXCR3 (N-delta 4) (Homo sapiens)" observable=IC50 reportedmeasurement="> 100 nM"
molecule=O=C(NCc1ccc(Cl)cc1Cl)c1cnc(N2CCN(C3CCN(Cc4ccc([N+](=O)[O-])cc4)CC3)CC2)c(Cl)c1 targetofassay="human CXCR3 (N-delta 4) (Homo sapiens)" observable=IC50 reportedmeasurement="25 to 100 nM"
molecule=CC[C@H]1CN(c2ncc(C(C)=O)cc2Cl)CCN1C1CCN(Cc2ccc(Cl)cc2F)CC1 targetofassay="human CXCR3 (N-delta 4) (Homo sapiens)" observable=IC50 reportedmeasurement="25 to 100 nM"
molecule=CC[C@H]1CN(c2ncc(C(=O)NC(C)C)cc2Cl)CCN1C1CCN(C(=O)c2ccc(C#N)cc2)CC1 targetofassay="human CXCR3 (N-delta 4) (Homo sapiens)" observable=IC50 reportedmeasurement="25 to 100 nM"
molecule=O=C(NCc1ccc(Cl)c(Cl)c1)c1cnc(N2CCN(C3CCN(Cc4ccc(Br)cc4)CC3)CC2)c(Cl)c1 targetofassay="human CXCR3 (N-delta 4) (Homo sapiens)" observable=IC50 reportedmeasurement="25 to 100 nM"
molecule=CCNC(=O)c1cnc(N2CCN(C3CCN([C@H](C)c4ccc(Cl)cc4)CC3)[C@@H](C)C2)c(Cl)c1 targetofassay="human CXCR3 (N-delta 4) (Homo sapiens)" observable=IC50 reportedmeasurement="< 25 nM"
molecule=O=C(NCc1ccc(F)cc1)c1cnc(N2CCN(C3CCN(Cc4ccc(F)cc4)CC3)CC2)c(Cl)c1 targetofassay="human CXCR3 (N-delta 4) (Homo sapiens)" observable=IC50 reportedmeasurement="> 100 nM"
molecule=CCCS(=O)(=O)NCc1cnc(N2CCN(C3CCN(Cc4ccc(Cl)cc4F)CC3)[C@@H](CC)C2)c(Cl)c1 targetofassay="human CXCR3 (N-delta 4) (Homo sapiens)" observable=IC50 reportedmeasurement="< 25 nM"
molecule="C[C@@H]1CN(c2ncc(C(=O)NCC3CCCCC3)cc2Cl)CCN1C1CCN(Cc2ccc(C#N)cc2)CC1 [compound 300]" targetofassay="human CXCR3 (N-delta 4) (Homo sapiens)" observable=IC50 reportedmeasurement="25 to 100 nM"
molecule=CCNC(=O)c1cnc(N2CCN(C3CCN(Cc4ccc(Cl)cc4F)CC3)[C@@H](C)C2)c(Cl)c1 targetofassay="human CXCR3 (N-delta 4) (Homo sapiens)" observable=IC50 reportedmeasurement="< 25 nM"
molecule="CC1CN(c2ncc(C(=O)NCc3ccc(F)c(F)c3)cc2Cl)CCN1C1CCN(Cc2ccc(Cl)cc2)CC1 (stereo not shown)" targetofassay="human CXCR3 (N-delta 4) (Homo sapiens)" observable=IC50 reportedmeasurement="25 to 100 nM"
molecule=CC[C@H]1CN(c2ncc(C(=O)NNC(N)=O)cc2Cl)CCN1C1CCN(Cc2ccc(Cl)cc2F)CC1 targetofassay="human CXCR3 (N-delta 4) (Homo sapiens)" observable=IC50 reportedmeasurement="> 100 nM"
molecule=O=C(NC1CCCC1)c1cnc(N2CCN(C3CCN(Cc4ccc(Cl)cc4)CC3)CC2)c(Cl)c1 targetofassay="human CXCR3 (N-delta 4) (Homo sapiens)" observable=IC50 reportedmeasurement="> 100 nM"
molecule=O=C(NCc1ccc(F)c(Cl)c1)c1cnc(N2CCN(C3CCN(Cc4ccc(F)cc4F)CC3)CC2)c(Cl)c1 targetofassay="human CXCR3 (N-delta 4) (Homo sapiens)" observable=IC50 reportedmeasurement="25 to 100 nM"
